- Assay: photoluminescence quantum yield (fraction); solvent given as SMILES
- Condition label: in O
# photoluminescence quantum yield listing for each entry below
Recorded endpoint: photoluminescence quantum yield

[[record]]
compound_structure_string = "COC(=O)c1ccccc1-c1c2ccc(=[NH2+])cc-2oc2cc(N)ccc12"
reading = 0.89

[[record]]
compound_structure_string = "COc1ccc(C)cc1C1=C2C=CC(=[N+](C)C)C=C2[Si](C)(C)c2cc(N(C)C)ccc21"
reading = 0.28

[[record]]
compound_structure_string = "CC1=N/C(=C\\c2ccc(N(C)C)cc2)C(=O)N1C"
reading = 0.0002

[[record]]
compound_structure_string = "CC[N+]1(CC)CN2C(=N1)C(C(=O)O)=Cc1cc(OC)ccc12"
reading = 0.509

[[record]]
compound_structure_string = "CC(=O)n1cc(/C=C/c2ccc([N+](=O)[O-])cc2)c2ccccc21"
reading = 0.003


---

The entries below are paired with their reported photoluminescence quantum yield.
- Assay: photoluminescence quantum yield (fraction); solvent given as SMILES
- Condition label: in CC#N
Recorded endpoint: photoluminescence quantum yield

[[record]]
compound = "CCOC(=O)COc1ccc(/C=C/C2=C3c4ccccc4C(c4[nH]c(C)cc4C)=[N+]3[B-](F)(F)n3c(C)cc(C)c32)cc1"
reading = 0.005

[[record]]
compound = "COC(=O)c1nc2c(OCc3ccccc3)nc(N)nc2n1Cc1ccccc1"
reading = 0.87

[[record]]
compound = "CC(=O)[B-]1(C(C)=O)OC(C)=CC(c2ccc3ccccc3c2)=[O+]1"
reading = 0.13

[[record]]
compound = "c1ccc(-n2cccc2)cc1"
reading = 0.17

[[record]]
compound = "O=c1oc2ccccc2c(O)c1C(CC(O)c1ccc(-c2ccc(Br)cc2)cc1)c1ccccc1 (stereo not given)"
reading = 0.06


---

- Assay: photoluminescence quantum yield (fraction); solvent given as SMILES
- Condition label: in CC#N
Measured photoluminescence quantum yield of individual entries
Recorded endpoint: photoluminescence quantum yield

[[record]]
compound_structure_string = "COc1cc(/C=C2/SC(=O)NC2=O)ccc1O"
reading = 0.01

[[record]]
compound_structure_string = "Cn1c(=O)cc(C(=O)c2ccccc2)c2sc(-c3ccc(C(F)(F)F)cc3)cc21"
reading = 0.8

[[record]]
compound_structure_string = "CC(C)(C)c1ccc2oc(-c3ccc(-c4nc5cc(C(C)(C)C)ccc5o4)s3)nc2c1"
reading = 0.76

[[record]]
compound_structure_string = "COc1c2ccccc2c(OC)c2c1c1ccc(C(F)(F)F)cc1n2C"
reading = 0.39

[[record]]
compound_structure_string = "Cc1sc(Cl)cc1-c1nc(-c2ccccc2)[nH]c1-c1cc(Cl)sc1C"
reading = 0.017


---

- Assay: photoluminescence quantum yield (fraction); solvent given as SMILES
- Condition label: in CCO
// photoluminescence quantum yield lookup, one value per entry
Recorded endpoint: photoluminescence quantum yield

[[record]]
compound = "COc1ccc2c(-c3nc(-c4ccccc4Cl)no3)cc(=O)oc2c1"
reading = 0.39

[[record]]
compound = "CC[N+](CC)=c1ccc2c(C(F)(F)F)c3oc4cc(N)ccc4c3oc-2c1"
reading = 0.064

[[record]]
compound = "Cc1c(COC(=O)Cc2c[nH]c3ccccc23)n2c(OCC(=O)Cc3c[nH]c4ccccc34)c(C)c(=O)n2c1=O"
reading = 0.715

[[record]]
compound = "c1csc(-c2c3ccc(=[N+]4CCCCC4)cc-3oc3cc(N4CCCCC4)ccc23)c1"
reading = 0.1

[[record]]
compound = "CCOc1ccc2c(-c3nc(-c4ccccc4F)no3)cc(=O)oc2c1"
reading = 0.64

[[record]]
compound = "CC1(C)C(/C=C/c2cc3ccc(O)cc3oc2=O)=[N+](CCCS(=O)(=O)[O-])c2ccc3c(S(=O)(=O)O)cc(S(=O)(=O)O)cc3c21"
reading = 0.014

[[record]]
compound = "NS(=O)(=O)c1ccc(N2N=C(c3ccc(O)cc3)CC2c2ccc(Br)cc2)cc1 (centres undefined)"
reading = 0.5

[[record]]
compound = "COC(=O)CNC(=O)CCNc1cccc2ccccc12"
reading = 0.55

[[record]]
compound = "Cc1ccc2sc3cc(CCC(=O)O)ccc3c(=O)c2c1"
reading = 0.082


---

- Assay: photoluminescence quantum yield (fraction); solvent given as SMILES
- Condition label: in CC#N
Criterion: photoluminescence quantum yield strictly under 0.02. Met: true. Not met: false.

[[record]]
compound_structure_string = "CN(C)C1=Nc2cccc3cccc1c23"
assigned_category = "true"

[[record]]
compound_structure_string = "O=C1Cc2cc3c(cc2CCCc2ccc(cc2)CCC3)CC(=O)Cc2ccc(c3nsnc23)C1"
assigned_category = "true"

[[record]]
compound_structure_string = "O=C1c2ccccc2-c2c(-c3cc(Cl)ccc3O)[nH]c(=O)n21"
assigned_category = "false"

[[record]]
compound_structure_string = "c1cc2ccc3cccc4c(-c5cc(-c6nccs6)nc(-c6nccs6)c5)cc(c1)c2c34"
assigned_category = "false"

[[record]]
compound_structure_string = "N#C/C(=C\\c1ccncc1)c1nc(-c2ccccc2)cs1"
assigned_category = "false"

[[record]]
compound_structure_string = "F[B-]1(F)OC(c2ccccc2)=CC(c2ccccc2)=[O+]1"
assigned_category = "false"

[[record]]
compound_structure_string = "CN(C)CCNCc1c2ccccc2cc2ccccc12"
assigned_category = "true"

[[record]]
compound_structure_string = "Cc1c(C2=[N+]3C(=Cc4c(C)c5ccccc5n4[B-]3(F)F)c3ccccc32)[nH]c2ccccc12"
assigned_category = "false"

[[record]]
compound_structure_string = "C=Cc1cccc(OC)c1"
assigned_category = "false"


---

- Assay: photoluminescence quantum yield (fraction); solvent given as SMILES
- Condition label: in CCCCCO
Recorded endpoint: photoluminescence quantum yield

[[record]]
compound = "COC(=O)C(Cc1ccc2oc(-c3ccc(N(C)c4ccccc4)cc3)nc2c1)NC(=O)OC(C)(C)C (stereo not given)"
reading = 0.28

[[record]]
compound = "CN(C)c1ccc2c(c1)Cc1ccccc1-2"
reading = 0.19

[[record]]
compound = "Cc1ccccc1/C(C#N)=C/c1ccc(N(C)C)cc1"
reading = 0.01

[[record]]
compound = "COC(=O)C(Cc1ccc2oc(-c3ccc(N(C)C)cc3)nc2c1)NC(=O)OC(C)(C)C (stereo not given)"
reading = 1

[[record]]
compound = "Cc1ccc(C(=O)NN2C3=C(CC4=C2CCCC4=O)C(=O)CCC3)cc1"
reading = 0.5


---

- Assay: photoluminescence quantum yield (fraction); solvent given as SMILES
- Condition label: in CCCCCC
Some compounds, each annotated with its measured photoluminescence quantum yield.
Recorded endpoint: photoluminescence quantum yield

[[record]]
compound = "CC1=[N+]2C(=C(c3ccc(N4CCCCC4)cc3)c3ccc(C)n3[B-]2(F)F)C=C1"
reading = 0.341

[[record]]
compound = "CC1(C)CCc2c(c3ccccc3c3nc4c(nc23)c2c(c3ccccc34)OC(C)(C)CC2)O1"
reading = 0.37

[[record]]
compound = "CCCCCCCCN1c2ccc(C#Cc3ccc(C(F)(F)F)cc3)cc2Sc2cc(C=O)ccc21"
reading = 0.57

[[record]]
compound = "O=C1c2cccc3c(-n4c5ccccc5c5ccccc54)ccc(c23)C(=O)N1C1CCCCC1"
reading = 0.872

[[record]]
compound = "CC(C)[Si](C#Cc1c2nc3ccccc3nc2c(C#C[Si](C(C)C)(C(C)C)C(C)C)c2nc3c(ccc4cc5ccccc5cc43)nc12)(C(C)C)C(C)C"
reading = 0.25

[[record]]
compound = "CC1=[N+]2C(=C(c3c4ccccc4c(-c4ccccc4)c4ccccc34)c3ccc(C)n3[B-]2(F)F)C=C1"
reading = 0.773

[[record]]
compound = "CC(C)[Si](C#Cc1c2cc3ccccc3cc2c(C#C[Si](C(C)C)(C(C)C)C(C)C)c2nc3c(nc12)Cc1ccccc1-3)(C(C)C)C(C)C"
reading = 0.15

[[record]]
compound = "CCC1=C(C)C2=Cc3c4ccccc4c4n3[B-](c3ccncc3)(Oc3ccccc3-4)[N+]2=C1C (stereo not drawn)"
reading = 0.78


---

- Assay: photoluminescence quantum yield (fraction); solvent given as SMILES
- Condition label: in CS(C)=O
# photoluminescence quantum yield >= 0.4 gives 1, anything below gives 0

[[record]]
compound = "Nc1ccc2c(c1)C(=O)N(C13C[C@H]4C[C@@H](C1)C[C@@H](C3)C4)C2=O"
assigned_category = 1

[[record]]
compound = "CC(C)(C)c1ccc(C(C)(C)C)c(N2C(=O)c3cccc4c(-c5ccc(-c6ccccc6)s5)ccc(c34)C2=O)c1"
assigned_category = 1

[[record]]
compound = "Fc1ccc2c(c1)sc1nc(-c3ccccc3)sc12"
assigned_category = 0

[[record]]
compound = "CCN1c2ccc(/C=N/Nc3ccccn3)cc2Sc2cc(-c3ccc(OC)cc3)ccc21"
assigned_category = 1

[[record]]
compound = "CCCCOc1ccc(-c2oc3cc4n(c3c2-c2ccc(OCCCC)cc2)[B-](F)(F)[N+]2=Cc3cc5oc(-c6ccc(OCCCC)cc6)c(-c6ccc(OCCCC)cc6)c5n3[B-](F)(F)[N+]2=C4)cc1"
assigned_category = 0

[[record]]
compound = "CCN1\\C(=C/C=C/C=C/C2=[N+](CC)c3ccc4cc(Br)ccc4c3C2(C)C)C(C)(C)c2c1ccc1cc(Br)ccc21"
assigned_category = 0

[[record]]
compound = "COC(=O)[C@@H]1C(=O)Oc2ccccc2[C@H]1c1c[nH]c2ccccc12"
assigned_category = 0

[[record]]
compound = "CC(=O)O[B-]1(OC(C)=O)OC(/C=C/c2ccc(C)cc2)=CC(/C=C/c2ccc(C)cc2)=[O+]1"
assigned_category = 1

[[record]]
compound = "COc1cc2c(cc1/C=C(\\C#N)c1nc3ccccc3s1)c1ccccc1n2C"
assigned_category = 0

[[record]]
compound = "COC(=O)C(Cc1ccc2oc(-c3ccc(N(C)c4ccccc4)cc3)nc2c1)NC(=O)OC(C)(C)C (stereo not drawn)"
assigned_category = 0

[[record]]
compound = "N#Cc1ccc2c(c1)CCc1nc(-c3ccc([N+](=O)[O-])cc3)c3c(c1-2)CCc1cc(C#N)ccc1-3"
assigned_category = 0

[[record]]
compound = "CC(C)[Si]1(C(C)C)c2cc(C=O)ccc2-c2ccc(N(c3ccccc3)c3ccccc3)cc21"
assigned_category = 1

[[record]]
compound = "CCC1=C(C)C(=O)n2c1cc1c(C)cc(C)n1c2=O"
assigned_category = 1

[[record]]
compound = "O=S(=O)(/N=c1\\oc2cccc3c4c(-c5ccccc5)oc5cccc(c(c1-c1ccccc1)c23)c54)C(F)(F)F"
assigned_category = 1

[[record]]
compound = "COc1ccc(C2CC(c3ccc(O)cc3)=NN2c2ccc(S(N)(=O)=O)cc2)cc1 (stereo not drawn)"
assigned_category = 1

[[record]]
compound = "CCOc1cc2c(cc1/C=C/C1=CC(=C(C#N)C#N)CC(C)(C)C1)c1ccccc1n2CC"
assigned_category = 0

[[record]]
compound = "CCN(CC)c1ccc(-c2nc3c(c4c2-c2ccc(C#N)cc2CC4)-c2ccc(C#N)cc2CC3)cc1"
assigned_category = 1

